The measured values listed here are drawn from the supplement of paper PMC10307832.

relative viability values for the compounds below.
System: SW 1573
Assay: relative viability (nuclei count vs DMSO), 5 days (fraction); higher = more cells survive
Details: first compound 0.6325 µM

COMPOUND	relative viability
Cc1csc(=NC2CCCCC2)n1/N=C/c1ccc(O)c(O)c1O [MIM1] + O=C(CCCCCCC(=O)Nc1ccccc1)NO [Vorinostat] (partner 1 µM)	0.668
CN1CCN(CCOc2cc(OC3CCOCC3)c3c(Nc4c(Cl)ccc5c4OCO5)ncnc3c2)CC1 [Saracatinib] + CS(=O)(=O)N1CCN(Cc2cc3nc(-c4cccc5[nH]ncc45)nc(N4CCOCC4)c3s2)CC1 [Pictilisib] (partner 1 µM)	0.456
Cc1csc(=NC2CCCCC2)n1/N=C/c1ccc(O)c(O)c1O [MIM1] + CC(=O)Nc1cccc(-n2c(=O)n(C3CC3)c(=O)c3c(Nc4ccc(I)cc4F)n(C)c(=O)c(C)c32)c1 [Trametinib] (partner 0.02 µM)	0.574

###

System: NCI-H647
Test: relative viability (nuclei count vs DMSO), 5 days (fraction); higher = more cells survive
Conditions: first compound 0.2 µM

COMPOUND	relative viability
Cc1csc(=NC2CCCCC2)n1/N=C/c1ccc(O)c(O)c1O [MIM1] + CC1(C)CCC(c2ccc(Cl)cc2)=C(CN2CCN(c3ccc(C(=O)NS(=O)(=O)c4ccc(N[C@H](CCN5CCOCC5)CSc5ccccc5)c(S(=O)(=O)C(F)(F)F)c4)cc3)CC2)C1 [Navitoclax] (partner 0.5 µM)	1.2
CCNC(=O)c1noc(-c2cc(C(C)C)c(O)cc2O)c1-c1ccc(CN2CCOCC2)cc1 [Luminespib] + C[C@]1(O)C[C@@H](c2nc(-c3ccc4ccc(-c5ccccc5)nc4c3)c3c(N)nccn32)C1 [Linsitinib] (partner 1 µM)	0.0826

###

relative viability values for the compounds below.
Tested on: CAL-12T
Experiment: relative viability (nuclei count vs DMSO), 5 days (fraction); higher = more cells survive
Conditions: first compound 0.2 µM

COMPOUND	relative viability
CCNC(=O)c1noc(-c2cc(C(C)C)c(O)cc2O)c1-c1ccc(CN2CCOCC2)cc1 [Luminespib] + C[C@]1(O)C[C@@H](c2nc(-c3ccc4ccc(-c5ccccc5)nc4c3)c3c(N)nccn32)C1 [Linsitinib] (partner 1 µM)	0.115
CCNC(=O)c1noc(-c2cc(C(C)C)c(O)cc2O)c1-c1ccc(CN2CCOCC2)cc1 [Luminespib] + CC(C)C[C@H](NC(=O)[C@H](Cc1ccccc1)NC(=O)c1cnccn1)B(O)O [Bortezomib] (partner 0.002 µM)	0.149
CN1CCN(CCOc2cc(OC3CCOCC3)c3c(Nc4c(Cl)ccc5c4OCO5)ncnc3c2)CC1 [Saracatinib] + Cc1cc(Nc2cc(N3CCN(C)CC3)nc(Sc3ccc(NC(=O)C4CC4)cc3)n2)n[nH]1 [Tozasertib] (partner 0.1 µM)	0.387

###

relative viability values for the compounds below.
Tested on: H3255
Assay: relative viability (nuclei count vs DMSO), 5 days (fraction); higher = more cells survive
Conditions: first compound 0.2 µM

COMPOUND	relative viability
CCNC(=O)c1noc(-c2cc(C(C)C)c(O)cc2O)c1-c1ccc(CN2CCOCC2)cc1 [Luminespib] + NC(=O)Nc1cc(-c2cccc(F)c2)sc1C(=O)N[C@H]1CCCNC1 [AZD7762] (partner 0.2 µM)	0.31
Cc1csc(=NC2CCCCC2)n1/N=C/c1ccc(O)c(O)c1O [MIM1] + C[C@@H](Oc1cc(-c2cnn(C3CCNCC3)c2)cnc1N)c1c(Cl)ccc(F)c1Cl [Crizotinib] (partner 1 µM)	0.911
CN1CCN(CCOc2cc(OC3CCOCC3)c3c(Nc4c(Cl)ccc5c4OCO5)ncnc3c2)CC1 [Saracatinib] + CS(=O)(=O)N1CCN(Cc2cc3nc(-c4cccc5[nH]ncc45)nc(N4CCOCC4)c3s2)CC1 [Pictilisib] (partner 1 µM)	0.391
Cc1csc(=NC2CCCCC2)n1/N=C/c1ccc(O)c(O)c1O [MIM1] + CC(=O)c1c(C)c2cnc(Nc3ccc(N4CCNCC4)cn3)nc2n(C2CCCC2)c1=O [Palbociclib] (partner 0.5 µM)	0.308
Cc1csc(=NC2CCCCC2)n1/N=C/c1ccc(O)c(O)c1O [MIM1] + C[C@]1(O)C[C@@H](c2nc(-c3ccc4ccc(-c5ccccc5)nc4c3)c3c(N)nccn32)C1 [Linsitinib] (partner 1 µM)	0.901
CCNC(=O)c1noc(-c2cc(C(C)C)c(O)cc2O)c1-c1ccc(CN2CCOCC2)cc1 [Luminespib] + COc1cccc2cc(-c3nc([C@H]4CC[C@H](C(=O)O)CC4)n4ncnc(N)c34)[nH]c12 [OSI-027] (partner 0.5 µM)	0.249
CN1CCN(CCOc2cc(OC3CCOCC3)c3c(Nc4c(Cl)ccc5c4OCO5)ncnc3c2)CC1 [Saracatinib] + Cc1cc(Nc2cc(N3CCN(C)CC3)nc(Sc3ccc(NC(=O)C4CC4)cc3)n2)n[nH]1 [Tozasertib] (partner 0.1 µM)	0.585
CN1CCN(CCOc2cc(OC3CCOCC3)c3c(Nc4c(Cl)ccc5c4OCO5)ncnc3c2)CC1 [Saracatinib] + COc1cc2c(Oc3ccc(NC(=O)C4(C(=O)Nc5ccc(F)cc5)CC4)cc3F)ccnc2cc1OCCCN1CCOCC1 [Foretinib] (partner 0.25 µM)	0.749
CCNC(=O)c1noc(-c2cc(C(C)C)c(O)cc2O)c1-c1ccc(CN2CCOCC2)cc1 [Luminespib] + CC(C)C[C@H](NC(=O)[C@H](Cc1ccccc1)NC(=O)c1cnccn1)B(O)O [Bortezomib] (partner 0.002 µM)	0.194
Cc1csc(=NC2CCCCC2)n1/N=C/c1ccc(O)c(O)c1O [MIM1] + O=C(CCCCCCC(=O)Nc1ccccc1)NO [Vorinostat] (partner 1 µM)	0.776
CCNC(=O)c1noc(-c2cc(C(C)C)c(O)cc2O)c1-c1ccc(CN2CCOCC2)cc1 [Luminespib] + CC(=O)c1c(C)c2cnc(Nc3ccc(N4CCNCC4)cn3)nc2n(C2CCCC2)c1=O [Palbociclib] (partner 0.5 µM)	0.296
CCNC(=O)c1noc(-c2cc(C(C)C)c(O)cc2O)c1-c1ccc(CN2CCOCC2)cc1 [Luminespib] + COc1cc2c(Oc3ccc(NC(=O)C4(C(=O)Nc5ccc(F)cc5)CC4)cc3F)ccnc2cc1OCCCN1CCOCC1 [Foretinib] (partner 0.25 µM)	0.329
Cc1csc(=NC2CCCCC2)n1/N=C/c1ccc(O)c(O)c1O [MIM1] + COc1cccc2cc(-c3nc([C@H]4CC[C@H](C(=O)O)CC4)n4ncnc(N)c34)[nH]c12 [OSI-027] (partner 0.5 µM)	0.596
CCNC(=O)c1noc(-c2cc(C(C)C)c(O)cc2O)c1-c1ccc(CN2CCOCC2)cc1 [Luminespib] + Cc1cc(Nc2cc(N3CCN(C)CC3)nc(Sc3ccc(NC(=O)C4CC4)cc3)n2)n[nH]1 [Tozasertib] (partner 0.1 µM)	0.25
CN1CCN(CCOc2cc(OC3CCOCC3)c3c(Nc4c(Cl)ccc5c4OCO5)ncnc3c2)CC1 [Saracatinib] + NC(=O)Nc1cc(-c2cccc(F)c2)sc1C(=O)N[C@H]1CCCNC1 [AZD7762] (partner 0.2 µM)	0.917
CCNC(=O)c1noc(-c2cc(C(C)C)c(O)cc2O)c1-c1ccc(CN2CCOCC2)cc1 [Luminespib] + Nc1ncn([C@H]2C[C@H](O)[C@@H](CO)O2)c(=O)n1 [Decitabine] (partner 2 µM)	0.222

###

Tested on: HCC-15
Experiment: relative viability (nuclei count vs DMSO), 5 days (fraction); higher = more cells survive
Settings: first compound 0.003162 µM

COMPOUND	relative viability
Cc1cn(-c2cc(NC(=O)c3ccc(C)c(Nc4nccc(-c5cccnc5)n4)c3)cc(C(F)(F)F)c2)cn1 [Nilotinib] + O=C(c1cc(Cc2n[nH]c(=O)c3ccccc23)ccc1F)N1CCN(C(=O)C2CC2)CC1 [Olaparib] (partner 8 µM)	0.778
Cc1cn(-c2cc(NC(=O)c3ccc(C)c(Nc4nccc(-c5cccnc5)n4)c3)cc(C(F)(F)F)c2)cn1 [Nilotinib] + C[C@@H](Oc1cc(-c2cnn(C3CCNCC3)c2)cnc1N)c1c(Cl)ccc(F)c1Cl [Crizotinib] (partner 1 µM)	0.96
Cc1cn(-c2cc(NC(=O)c3ccc(C)c(Nc4nccc(-c5cccnc5)n4)c3)cc(C(F)(F)F)c2)cn1 [Nilotinib] + CCNC(=O)c1noc(-c2cc(C(C)C)c(O)cc2O)c1-c1ccc(CN2CCOCC2)cc1 [Luminespib] (partner 0.01 µM)	0.431
Cc1cn(-c2cc(NC(=O)c3ccc(C)c(Nc4nccc(-c5cccnc5)n4)c3)cc(C(F)(F)F)c2)cn1 [Nilotinib] + Cc1nc(Nc2ncc(C(=O)Nc3c(C)cccc3Cl)s2)cc(N2CCN(CCO)CC2)n1 [Dasatinib] (partner 0.075 µM)	0.689
Cc1cn(-c2cc(NC(=O)c3ccc(C)c(Nc4nccc(-c5cccnc5)n4)c3)cc(C(F)(F)F)c2)cn1 [Nilotinib] + Nc1ncn([C@H]2C[C@H](O)[C@@H](CO)O2)c(=O)n1 [Decitabine] (partner 2 µM)	0.77
Cc1cn(-c2cc(NC(=O)c3ccc(C)c(Nc4nccc(-c5cccnc5)n4)c3)cc(C(F)(F)F)c2)cn1 [Nilotinib] + NC(=O)Nc1cc(-c2cccc(F)c2)sc1C(=O)N[C@H]1CCCNC1 [AZD7762] (partner 0.2 µM)	1.28
Cc1cn(-c2cc(NC(=O)c3ccc(C)c(Nc4nccc(-c5cccnc5)n4)c3)cc(C(F)(F)F)c2)cn1 [Nilotinib] + CS(=O)(=O)N1CCN(Cc2cc3nc(-c4cccc5[nH]ncc45)nc(N4CCOCC4)c3s2)CC1 [Pictilisib] (partner 1 µM)	0.874
